Each recorded value in this set is attributed to patent US20210403538A1.

Molecular target: EBOV GP on recombinant EBOV-eGFP virus (Zaire ebolavirus (EBOV))
Experiment: cell-based or functional assay

binder	Neutralization, IC50 ng/mL
EBOV-508 (antibody, V domains shown) VH: QVQLVQSGAEVKKPGASVKVSCKASGYTFINYYMHWVRQAPGQGLEWMGTINPSTGRPNYAQKFQGRVTLTRDTSTTTVDMELSSLTSEDTAVYYCVSFQFYFDYWGQGTLVTVSS VL: DIQMTQSPSAMSPSVGDRVTITCRASQGINNYLAWFQQKPGKVPKRLIYAASNLQSGVPSRFSGSGSGTEFTLTISSLQPEDFATYYCLQHNSYPWTFGQGTKVEIN	> 200000 ng/mL
EBOV-520 (antibody, V domains shown) VH: QVQLQESGPGLGKPSETLSLSCTVSGASIRGYFWNWIRQPPGKGLEWIGYIHSTGSTNYNPSLKSRVTISVDTSKNQVSLNVNSVTAADTAVYFCARGAWNVATVYYYYGMDVWGQGTLVTVSS VL: EIVLTQSPGTLSLSPGERATLSCRASQSVSSSYFAWYQQKPGQAPRLLISGTSTRAPGIPDRFSGSGSGTDFTLTISRLEPEDFAVYFCQQYGNSLYTFGQGTKLEIK	5740 ng/mL
EBOV-511 (antibody, V domains shown) VH: QLQLQESGPGLVKPSETLSLSCTVSGDSISANNYFWGWIRQPPGKELEWIGSIHNSGSTYYNPSLKSRVTTSVDTSRTQFSLKLHSVTAADAAIYYCARHLAPISGVIFIPSFFDSWGQGTLVTVSS VL: EIVMTQSPATLSVSPGERATLSCRASQSVSSNLAWYQQRPGQAPRLLIFDASTRATGVPARFSGSGSGTEFTLTISSLQSEDFALYYCQQYNDWPPRLTFGGGTKVEIK	> 200000 ng/mL
EBOV-518 (antibody, V domains shown) VH: QVTLKESGPTLVKPTQTLTLTCTFSGFSMNSSGMSVTWIRQPPGKALECLALIYWDDDKWYGPSLETRVTITKDASKNQVVLTMTNMDPVDTATYYCAHSGGLVAGAFDYWGQGTLVTVSS VL: EIVMTQSPDSLTVSLGERATINCRSSQSVLYRVNSKNYLAWYQQKAGQTPKLIINWASTRESGVPDRFSGSGSGTDFTLTISSLQAEDVAVYYCQQYYNSPRTFGQGTKVEIK	> 200000 ng/mL
EBOV-510 (antibody, V domains shown) VH: QVQLQESGPGLVKPSQTLSLTCTVSGGSITSGDYYLTWVRQPPGKGLEWIGHIYYSGSTSYNPSLKSRLLMSVDTSKNQFSLRLSSVTAADTAVYYCARESDGDPSRLYFYFAMDVWGQGTLVTVSS VL: QSALTQPASVSGSPGQSITISCTGTSSDVGGSYFVSWYQHHPGKAPKLMISEVSNRPSGVSNRFSGSKSGNTASLTISGLRTEDEADYYCSSYTSNTTLVFGGETKVTVL	> 200000 ng/mL
EBOV-514 (antibody, V domains shown) VH: QVQLQESGPGLVKPSQTLSLTCTVSGASITGGDDFWSWIRQPPGKGLEWIGFIHHSGNAYYRSSLKSRVHFSVDTSKDQFSLTLTSVTAADTAVYYCARDKAQAYGLLYHYHTDVWGKGTLVTVSS VL: EIVMTQSPATLSVSPGERATLSCRASQSVSSNLAWYQQKPGLAPRLLIYGAFTRATDIPDRFSGSGSGTEFTLTISSLQSEDFAIYYCQYYNDWPPGYTFGQGTKLEIK	> 200000 ng/mL
EBOV-446 (antibody, V domains shown) VH: QVQLVQSGAEVKKPGASVKVSCKASGYTFTDYYIYWVRQAPGQGLEWMGWLNPNSGGTDYAQKFQGRVTMTRDTSIRTAYMDLSRLRSDDTAVYYCARGRRHGAYVDWGQGTLVTVSS VL: DIQLTQSPSFLSASVGDRVTITCRASQGISTYLAWYQQKPGKAPNLLIYDTSTLQSGVPSRFSGSASGTEFTLTISSLQPEDFATYYCQQLNFYLGGLTFGQGTRLEIK	> 200000 ng/mL
EBOV-451 (antibody, V domains shown) VH: EVQLVESGGSVVRPGGSLRLSCAASGFKFDEYGMSWVRQAPGKGLEWVSGITWNGGVRTYADSVKGRFTISRDNAKNSVYLQMKSLRGEDTALYYCVSWGERYDAYFDYWGQGTLVTVSS VL: EIVLTQSPGSLSLSPGERATLSCRASQSVNSRYFAWYQQRPGQAPRLLIYATSTRATGIPDRFSGSGSGTDFTLTISRLEPEDFAVYSCQQYGSSPYTFGQGTKLEIK	> 200000 ng/mL
